biological target: Prostaglandin E2 receptor EP2 subtype (Homo sapiens) (UniProt P43116); assay: EP2 receptor modulators, dose response, cell-based, human EP2, PGE2 EC50 shift (AID 1421); details: EP2-expressing cells, PGE2 EC50 shift by compound; measured here: PGE2 EC50 at 6.7 uM compound
Sequence (P43116 whole entry, looked up): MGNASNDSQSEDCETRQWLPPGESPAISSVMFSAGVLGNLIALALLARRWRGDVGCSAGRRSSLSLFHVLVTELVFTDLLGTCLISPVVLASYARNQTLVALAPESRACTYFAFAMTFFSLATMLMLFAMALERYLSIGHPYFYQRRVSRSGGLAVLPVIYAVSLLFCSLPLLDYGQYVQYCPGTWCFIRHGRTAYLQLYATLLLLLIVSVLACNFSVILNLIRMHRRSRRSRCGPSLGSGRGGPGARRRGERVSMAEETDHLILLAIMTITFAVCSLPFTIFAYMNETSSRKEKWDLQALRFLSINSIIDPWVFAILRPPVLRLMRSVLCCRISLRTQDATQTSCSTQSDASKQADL
The threshold is inclusive: PGE2 EC50 with compound of exactly 1 nM counts as y; values below receive n.

Please review the entries below; each comes with its answer.
Entry `COc1c2c(cc3occ(-c4ccc5c(c4)OCO5)c(=O)c13)OC(C)(C)C=C2` : is its PGE2 EC50 with compound no less than 1 nM?
y

Entry `CC(C)C(=O)c1cc2c(cc1NC(=O)c1ccccc1)OCCO2` : is its PGE2 EC50 with compound no less than 1 nM?
n

Entry `CCOC(=O)c1c(NC(=O)c2ccoc2C)sc(C(=O)N(C)C)c1C` : is its PGE2 EC50 with compound no less than 1 nM?
n

Further cases:
Entry CCCCC(CC)CN1CN(CC(CC)CCCC)CC(C)(N)C1 (configuration not stated) : is its PGE2 EC50 with compound no less than 1 nM?
y

Entry CC1(C)CC2CC(C)(CN2c2ncnc3ccc(Br)cc23)C1 (configuration not stated) : is its PGE2 EC50 with compound no less than 1 nM?
y

----------
target: UniProt P43116; experiment: EP2 receptor modulators, dose response, cell-based, human EP2, PGE2 EC50 shift (AID 1421); settings: EP2-expressing cells, PGE2 EC50 shift by compound; measured here: PGE2 EC50 at 6.7 uM compound
OBSERVED PROPERTY: PGE2 EC50 with compound (nM)
Numbers only, in nM.

What the record says about `COc1ccc(/C=C(\C#N)C(N)=O)cc1OC` : PGE2 EC50 with compound is 1.31

What the record says about `Cc1ccc(Nc2nc(CSc3nnc(-c4ccccc4C)n3C)cs2)cc1` : PGE2 EC50 with compound is 1.35

What the record says about `Cc1ccc(-c2cc(C(F)(F)F)nn2-c2ccc(S(N)(=O)=O)cc2)cc1` : PGE2 EC50 with compound is 1.28

What the record says about `Cc1ccccc1-n1c(SCC(=O)N2CCCC2)nnc1-c1ccccn1` : PGE2 EC50 with compound is 1.28

What the record says about `CCOC(=O)CC(=O)CSc1ncnc2c1oc1ccccc12` : PGE2 EC50 with compound is 2.64

Give PGE2 EC50 with compound for all molecules that follow.
1. CCc1ccc2nc(-c3cccc(C)c3)nc(SCC(=O)NCC3CCCO3)c2c1 (configuration not stated)
2. Cc1cc(OCC(=O)OC(C)C)c2c3c(c(=O)oc2c1)CCCC3
3. N#Cc1c(N)nc2c3c(sc(=N)c2c1N)NC(=O)CC3c1c(F)cccc1Cl (configuration not stated)

1. 2.64
2. 0.81
3. 0.74

Give PGE2 EC50 with compound for all molecules that follow.
1. CCOC(=O)c1cnn(-c2nc(-c3ccc(F)cc3)cs2)c1C(F)(F)F
2. O=C1CCC(c2ccccc2)=NN1Cc1c(F)cccc1Cl

1.04
0.9

----------
target: Prostaglandin E2 receptor EP2 subtype (Homo sapiens) (UniProt P43116); assay: EP2 receptor modulators, dose response, cell-based, human EP2, PGE2 EC50 shift (AID 1421); details: EP2-expressing cells, PGE2 EC50 shift by compound; measured here: PGE2 EC50 at 6.7 uM compound
The threshold is inclusive: PGE2 EC50 with compound of exactly 1 nM counts as Condition met; values below receive Condition not met.

Please review the entries below; each comes with its answer.
Entry `CCOC(=O)c1c(NC(=O)c2c(Br)cnn2CC)sc(C)c1C` : is its PGE2 EC50 with compound no less than 1 nM?
Condition not met

Entry COc1ccc(S(=O)(=O)N2c3cc(C)ccc3OCC2C(C)(C)C)cc1 (stereo unspecified) : is its PGE2 EC50 with compound no less than 1 nM?
Condition not met

Entry COc1cccc(-c2nc(N3CC(C)CC(C)C3)c3ccccc3n2)c1O (stereo unspecified) : is its PGE2 EC50 with compound no less than 1 nM?
Condition met

Entry `CCCn1c(C)nc2c(c1=O)c1nc3ccccc3nc1n2CCC1=CCCCC1` : is its PGE2 EC50 with compound no less than 1 nM?
Condition met

Further cases:
Entry CC(=O)N1c2ccccc2C(C)(c2ccccc2)CC1(C)C (stereo unspecified) : is its PGE2 EC50 with compound no less than 1 nM?
Condition met
